test system: SK-MEL-28 melanoma; assay: NCI-60 one-dose screen, 48 h (100 = growth as untreated, 0 = no growth, -100 = all killed); conditions: 10 µM unless noted
The panel holds about 83,000 compounds, 20% with a hit somewhere; the sample as a whole holds those more often.
Decision: growth beneath 60% gives YES; growth meeting or exceeding 60% gives NO.

input: Bench note: check whether COC(=O)[C@@H](C)CNS(=O)(=O)N(c1cc(C(F)(F)F)cc(C(F)(F)F)c1)C1CCN(Cc2ccc(F)cc2)CC1 shows growth below 60%
output: NO

input: Criterion: growth strictly below 60%. Is it met by COc1ccc(S(=O)(=O)N(C(C)=O)c2ccccc2/C=C/c2cc[n+]([O-])cc2)cc1 ?
output: YES

input: # strict comparison: is reported growth < 60%? input = CN1CCN(c2nc(C3=C(c4c[nH]c5ccccc45)C(=O)NC3=O)c3ccccc3n2)CC1
output: YES

input: Confirm or reject: growth of Cc1cc(C(O)CN(C)C)cc2c1ccc1cc(C(C)C)ccc12 (stereo not given) lies strictly below 60%
output: YES

input: hey, is growth for NC1=Nc2cc(OCCCN3Cc4ccccc4C3)c(OCC3CC3)cc2C12CCCC2 lower than 60% or not?
output: YES

input: Input Fc1ccc(NCc2cn(-c3ccccc3)nc2-c2ccc(OCc3ccccc3)cc2)cc1Cl ; condition: growth strictly below 60%. Does it hold?
output: NO

input: Is the reported growth for Cc1cc(N(CCNc2ccnc3cc(Cl)ccc23)Cc2cccs2)nc(Cl)n1 strictly below 60%?
output: YES

input: Is growth of CC(C)NC[C@@H](C(=O)N1CCN(c2ncnc3c2[C@H](C)C[C@H]3O)CC1)c1ccc(Cl)cc1 strictly below 60%?
output: YES

input: Given C=CC(=O)N1CCC[C@H](n2c(=O)n(-c3ccc(Oc4ccccc4)cc3)c3c(N)ncnc32)C1 , is recorded growth strictly lower than 60%?
output: NO

input: Does the reported growth of the following compound sit strictly below 60%? CC(C)CC(=O)Nc1n[nH]c2c1CN(C(=O)C1CCN(C)CC1)C2(C)C
output: YES

* * *

system: LOX IMVI melanoma; experiment: NCI-60 one-dose screen, 48 h (100 = growth as untreated, 0 = no growth, -100 = all killed); conditions: 10 µM unless noted
Compounds without any hit were thinned out: in the full panel of roughly 83,000, 20% have a hit.
I'd appreciate it if you could supply growth values for the items below.
# number only, unit % dropped from output

input: growth for Cc1cc(-c2cc(O)ccc2Cl)cc2nnc(Nc3ccc(OCCN4CCCC4)cc3)nc12 ?
output: -63.9

input: Could you tell me which growth is on file for COc1cccc(Nc2ncnn3ccc(CN4CC[C@@H](N)[C@H](O)C4)c23)c1 ?
output: 35.3

input: For CNC(=O)c1cnc(C)nc1-c1cc(C(C)(C)C)c(O)c(C(C)(C)C)c1 , what is its reported growth?
output: 110

input: Report growth for COC(=O)[C@@H](NC(=O)[C@@H](OC)[C@@H]1Cc2cc3cc(OC4CC(OC5CC(O)C(O)C(C)O5)C(O)C(C)O4)c(C)c(O)c3c(O)c2C(=O)[C@H]1OC1CC(OC2CC(OC3CC(C)(O)C(O)C(C)O3)C(O)C(C)O2)C(O)C(C)O1)C(C)C (some centres not stated) please.
output: -76.2

input: Fill blank: measured growth of the molecule CC(=O)Nc1cccc(-n2c(=O)n(C3CC3)c(=O)c3c(Nc4ccc(I)cc4F)n(C)c(=O)c(C)c32)c1 is ____.
output: 14

input: Which growth is listed for C=CCCCOC1[C@H](OCc2ccccc2)C(OCc2ccccc2)C(OC)O[C@@H]1CNC(=O)c1cccc(I)c1 (some centres not stated) ?
output: 11.4

input: growth lookup needed for COc1c(OCCCN2CCOCC2)ccc2c3n(c(=NC(=O)c4cnc(N)nc4)nc12)CCN3 , thanks.
output: -41.9

* * *

Task for the reader: assign each of the following compounds its reported growth.
system: UO-31 renal; assay: NCI-60 one-dose screen, 48 h (100 = growth as untreated, 0 = no growth, -100 = all killed); conditions: 10 µM unless noted
This is part of a sample that, as a whole, favours compounds with a hit. Of some 83,000 tested, about 20% had one in any assay.
Write the value in % as a bare number.

input: # input compound: [2H]C1([2H])[C@H](C)O[C@H](C)C([2H])([2H])N1c1ccc(NC(=O)c2cccc(-c3ccc(OC(F)(F)F)cc3)c2C)cn1 ; wanted: its growth
output: 54.5

input: Which growth value is on record for CCCS(=O)(=O)Nc1ccc(F)c(C(=O)c2c[nH]c3ncc(-c4ccc(Cl)cc4)cc23)c1F ?
output: 19.5

input: Would you mind telling me what growth value was observed for Cc1cc(-c2cc(OC(=O)c3ccccc3)ccc2Cl)cc2nnc(Nc3ccc(OCCN4CCCC4)cc3)nc12 ?
output: 73.9

input: growth for Nc1nc(N)c2nc(-c3cccc(O)c3)c(-c3cccc(O)c3)nc2n1 ?
output: 65.9

input: Record request: growth value, item CCc1cnn2c(NCc3ccc[n+]([O-])c3)cc(N3CCCC[C@H]3CCO)nc12
output: -7.4

input: Dear colleague, I am looking for the recorded growth of the following compound: O=C(NC[C@H](O)CO)c1ccncc1Nc1ccc(I)cc1F
output: 35.1

input: Requested read-out: growth. Entry: COc1ccc(OC)c(NC2=C(SCCc3ccccc3)C(=O)c3ccccc3C2=O)c1
output: 61.6

input: Record request: growth value, item NC1(C(=O)N[C@@H](CCO)c2ccc(Cl)cc2)CCN(c2ncnc3[nH]ccc23)CC1
output: 17.5

input: Look up growth: O=C(Nc1ccc(-c2ccnc(Nc3ccc(N4CCOCC4)cc3)n2)cc1)[C@@H]1CCCN1
output: 26.5

* * *

System: NCI-H460 lung
Assay: NCI-60 one-dose screen, 48 h (100 = growth as untreated, 0 = no growth, -100 = all killed)
Conditions: 10 µM unless noted
Protocol: Growth inhibition of the NCI-H460 human Non-Small Cell Lung tumor cell line is measured as a screen for anti-cancer activity. Cells are grown in 96 well plates and exposed to the test compound for 48 hours. Compounds are tested at a single concentration, which is 10^-5 M for most compounds. The reported endpoint is percent growth (GI% or GIPRCNT), where numbers from 0 - 100% represent growth inhibition, and numbers from -100% - 0 represent cell death. […]
Compounds without any hit were thinned out: in the full panel of roughly 83,000, 20% have a hit.
growth strictly under 10% means met; at 10% or over means not met.

input: Check if growth falls below 10% for Nc1c(C(=O)c2ccccc2)sc2nc(-c3cccs3)cc(-c3cccs3)c12 .
output: not met

input: Dear reviewer, please state whether Cc1cc(C(O)CN(C)C)cc2c1ccc1cc(C(C)C)ccc12 (stereo unspecified) has growth strictly beneath 10%.
output: met

input: Please determine if Cc1oc2c(C(=O)N/N=C\c3ccc(O)cc3O)c[nH]c2c1C is below 10% in terms of growth.
output: met

input: Is it true that growth reported for Cn1cnc2c(F)c(Nc3ccc(Br)cc3F)c(C(=O)NOCCO)cc21 is less than 10%?
output: not met

input: Is 10% strictly greater than the compound's reported growth? compound: Cc1ccccc1N1C(c2ccccc2)=NNC12C=CC(=O)C=C2Cl (stereo unspecified)
output: not met

input: Determine whether this compound shows growth lower than 10% (ties excluded): CC(C)C1CCC(C)C(C2(C#N)C(N)=NC(N)=C2C#N)C1=O (stereo unspecified)
output: not met
